Tested on: DMS 273 small cell lung
experiment_summary: NCI tumour cell line growth inhibition, 48 h
quantity_measured: TGI

Take a look at these entries with their results.
[[record]]
molecule = "Cc1ccc(S(=O)(=O)OCOS(=O)(=O)c2ccc(C)cc2)cc1"
result = "> 100 µM"

[[record]]
molecule = "CN(C)[C@@H]1C(=O)C(C(=O)NCNc2nc3n[nH]nc3c(=O)[nH]2)=C(O)[C@@]2(O)C(=O)C3=C(O)c4c(O)cccc4[C@@](C)(O)[C@H]3C[C@@H]12"
result = "> 100 µM"

[[record]]
molecule = "Cn1[nH]cc2ccc3nc4ccccc4c(=O)c3c21"
result = "> 100 µM"

[[record]]
molecule = "Cc1ccccc1NC(=O)/C(=N\\NC(N)=S)C(C#N)c1ccccc1 (centres undefined)"
result = "> 100 µM"

[[record]]
molecule = "CCOC(=O)c1cc(=O)n(C)c(=O)n1C"
result = "> 100 µM"

[[record]]
molecule = "C=C1CC(OC)(C(OC)C(=O)N[C@H]2OCO[C@H]3C2O[C@H](C[C@@H](COC)OC)C(C)(C)C3OC)O[C@H](C)[C@@H]1C (some centres undefined)"
result = "3.79 µM"

[[record]]
molecule = "Nc1cccc2c1-c1c(cccc1[N+](=O)[O-])C2=O"
result = "> 100 µM"

[[record]]
molecule = "COc1cccc(NC(=O)CSc2nnc(Cc3ccccc3)o2)c1"
result = "> 100 µM"


Attention now shifts to the item below.
For this molecule ( C/C=C(\N=C=S)C(=O)OC1C(COC(C)=O)OC([C@]2(O)CC(=O)C(=N)C(C(=O)O)=C2O)C(O)C1OC1CC(OC)C(O)([C@@H](C)OC(=O)[C@@H](C)CC)C(C)O1 (some centres undefined) ), measured TGI is 32.1 µM
